System: DMS 114 small cell lung
Assay: NCI tumour cell line growth inhibition, 48 h

molecule | inequality-operator | TGI / µM
NC(N)=NS(=O)(=O)c1ccc(NC(=O)c2ccc(Cl)c3c(Nc4ccc(S(=O)(=O)N=C(N)N)cc4)c4ccccc4nc23)cc1 | > | 100
CC1=C(CC/C(C)=C/CCC2(C)CCC([C@H](C)C(=O)O)OO2)C(C)(C)CCC1 (some centres undefined) (tested in a mixture with another compound) | > | 100
C#CCCCCC#CC1CCCC1C1=CC(=O)c2ccccc21 (centres undefined) | = | 6.97
COC(=O)c1cc(Cl)ccc1NC(=O)C1CCCCC1 | > | 100
c1ccc(SCCP(CCP(c2ccccc2)c2ccccc2)c2ccccc2)cc1 (centres undefined) | = | 33.2
O=C(Cc1ccccc1)NN1C(=O)C(Cl)C1c1cc(Br)cc(Br)c1O (centres undefined) | = | 17.8
CCN(CC)CCNC(=O)c1ccccc1Nc1c(Cl)cccc1Cl | = | 24.8
N#CC(C(=N/NC(N)=S)/C(=N\NC(N)=S)C(C#N)c1ccccc1)c1ccccc1 (centres undefined) | > | 10
O=S(=O)(O)c1cc(O)c2c(O)c(N=Nc3ccc(/C=C/c4ccc(N=Nc5c(S(=O)(=O)O)cc6cc(S(=O)(=O)O)cc(O)c6c5O)cc4S(=O)(=O)O)c(S(=O)(=O)O)c3)c(S(=O)(=O)O)cc2c1 | > | 100
